# Study System: SARS-COV-2 RBD extracellular domain expressed with a C-terminal myc-myc-hexahistidine tag (SARS-COV-2 RBD-mmH) (SARS-CoV-2)
# Assay Summary: SPR Biacore, mAb captured on anti-hFc, RBD-mmH analyte, 37 C
Result Type: kon (M⁻¹ s⁻¹)
Numbers only here, please. The scale is M⁻¹ s⁻¹.

Look over these answered cases.
Binder	kon / M⁻¹ s⁻¹
mAb14230 (antibody, V domains shown) VH: EVQLVESGGGLIQPGRSLRLSCAASGFTFDDYAMHWVRQAPGKGLEWVSGISWNSVSIDYADSVKGRFTISRDNAKNSLYLQMTSLTVEDTALYYCAKAFGYETLTGSDYFAYWGPGTLVTVSS VL: EIVLTQSPGTLSLSPGERATLSCRASQTVISTYLAWYQQKPGQSPRLLIYGASSRATGIPDRFSGSGSGTDFTLTISRLEPEDFAVYYCQQYGSSPQLTFGGGTKVEIKR	1.15e+06
mAb15159 (antibody, V domains shown) VH: EVQLVESGGGLVQPGGSLRLSCAASGITVSSNYMTWVRQAPGKGLEWVSLIYSGGSTFYADSVRGRFTISRDNSKNTLYLQMNSLRAEDTAVYYCARDLVVYGMDVWGQGTTVTVSS VL: DIQLTQSPSSLSASVGDRVTITCRASQGISSYLAWYQQKPGKAPKLLIYAASTLQSGVPSRFSGSGSGTDFTLTISSLQPEDFATYYCQHLNSDPHTFGQGTKLEIKR	146000

# binder mAb14283 (antibody, V domains shown) VH: QVQLQESGPGLVKPSGTLSLTCDVSGGSISSNNWWSWVRQRPGKGLQWIGEIYHNENTNYNPSLKSRVIMSIDKSKNQFSLKLTSVTAADTAVYYCARGDVLDWFDPWGQGTLVTVSS VL: QSALTQPASVSGSPGQSTTISCTGTSSDVGGYNYVSWYQQYPGKAPKLMIYDVTNRPSGVSHRFSGSKSGNTASLTISGLQAEDEADYYCSSYTSSSTVIFGGGTKLTVLG ; its kon = 1.54e+06
